biological target: UniProt:Q08210; experiment: biochemical; design: PfDHODH enzyme inhibition IC50; conditions: read-out: >50
Sequence (Q08210 whole entry): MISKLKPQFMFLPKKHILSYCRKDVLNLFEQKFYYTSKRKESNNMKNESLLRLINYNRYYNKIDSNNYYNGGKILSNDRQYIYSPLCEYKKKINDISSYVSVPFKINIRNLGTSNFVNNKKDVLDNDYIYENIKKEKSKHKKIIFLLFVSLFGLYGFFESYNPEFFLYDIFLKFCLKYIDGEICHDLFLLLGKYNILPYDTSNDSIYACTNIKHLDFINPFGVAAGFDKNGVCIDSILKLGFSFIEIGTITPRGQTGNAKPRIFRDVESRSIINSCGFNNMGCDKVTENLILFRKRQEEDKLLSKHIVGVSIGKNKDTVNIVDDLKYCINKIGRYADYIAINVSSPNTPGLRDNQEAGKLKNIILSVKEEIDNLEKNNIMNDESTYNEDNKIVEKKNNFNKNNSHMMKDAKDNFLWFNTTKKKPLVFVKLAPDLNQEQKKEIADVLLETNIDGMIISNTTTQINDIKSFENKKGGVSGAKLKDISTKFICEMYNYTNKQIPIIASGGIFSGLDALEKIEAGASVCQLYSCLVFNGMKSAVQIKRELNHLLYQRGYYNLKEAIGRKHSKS
pIC50: −log10 of the molar value.
endpoint-name: pIC50

• COc1ccc(-n2ccnc2SCC(=O)Nc2cc(C(F)(F)F)ccc2Cl)c(OC)c1 = 7.32

* * *

test: in vitro; design: microsomal stability with NADPH, LC-MS, half-life and CLint; settings: human; liver microsomes; HLM; read-out: t1/2 HLM (Monash)
endpoint-name: half-life (h)

* COc1ccc(-n2c(C)cc(/C=C3\SC(=Nc4ccccc4)NC3=O)c2C)cc1 | 3.45
* Cc1ccc(-n2c(C)cc(/C=C3\SC(=Nc4ccccc4)NC3=O)c2C)cc1 | 4.08
* Cc1cc(/C=C2\S/C(=N\c3ccccc3)NC2=O)c(C)n1-c1ccc(F)cc1 | 1.72

* * *

Test system: Plasmodium falciparum K1 (chloroquine resistant)
Construct: K1
Assay: microbe, parasite or virus in culture
Design: species or system P. falciparum blood stage culture; whole-cell asexual blood stage P. falciparum growth inhibition
Conditions: Guy assay, read-out: Pfal (K1) IC50 (Guy)
Description: To confirm the promise of the two starting points OSM-S-5 and -6, they were evaluated against 3D7 (drug-sensitive) and K1 (chloroquine resistant) strains of Plasmodium falciparum in a whole cell assay and against HEK-293 cells as a cytotoxicity marker (Table SB1, Biological Protocols; tables with the prefix “SB” may be found in the Supporting Information). […]
endpoint-name: IC50 (nM)

• COc1ccc(-n2c(C)cc(/C=C3\SC(=Nc4ccccc4)NC3=O)c2C)cc1 = 204
• Cc1cc(/C=C2\SC(=Nc3ccccc3)NC2=O)c(C)n1-c1ccc(S(N)(=O)=O)cc1 = 4380
• Cc1cc(/C=C2\S/C(=N\c3ccccc3)NC2=O)c(C)n1-c1ccc(C#N)cc1 = 1830
• Cc1cc(/C=C2\S/C(=N\c3ccccc3)NC2=O)c(C)n1-c1ccc(I)cc1 = 3160
• Cc1ccc(-n2c(C)cc(/C=C3\SC(=Nc4ccccc4)NC3=O)c2C)cc1 = 176
• COc1cccc(-n2c(C)cc(/C=C3\S/C(=N\c4ccccc4)NC3=O)c2C)c1 = 140

* * *

system: Plasmodium falciparum Pfal (strain not named in column head); assay: microbe, parasite or virus in culture; design: species or system P. falciparum blood stage culture; whole-cell asexual blood stage P. falciparum growth inhibition; settings: Guy assay
Overview of recorded log10 of IC50 for various compounds
endpoint-name: log10 of IC50 (log10 of the value in nM)

- Cc1cc(/C=C2\SC(=Nc3ccccc3)NC2=O)c(C)n1-c1ccc(S(N)(=O)=O)cc1: 3.48
- COc1cccc(-n2c(C)cc(/C=C3\S/C(=N\c4ccccc4)NC3=O)c2C)c1: 1.99
- Cc1cc(/C=C2\S/C(=N\c3ccccc3)NC2=O)c(C)n1-c1ccc(I)cc1: 3.24
- Cc1cc(/C=C2\S/C(=N\c3ccccc3)NC2=O)c(C)n1-c1ccc(C#N)cc1: 2.76
- Cc1ccc(-n2c(C)cc(/C=C3\SC(=Nc4ccccc4)NC3=O)c2C)cc1: 2.21
- COc1ccc(-n2c(C)cc(/C=C3\SC(=Nc4ccccc4)NC3=O)c2C)cc1: 2.17

* * *

tested on: Plasmodium falciparum Pfal (3D7); construct: 3D7; assay: microbe, parasite or virus in culture; parameters: species or system erythrocytes; P. falciparum asexual blood-stage whole-cell growth inhibition, IC50; conditions: 3D7, Erythrocyte, lab named in column head, read-out: Pfal IC50 (Guy)
endpoint-name: IC50 (nM)

* COc1ccc(-n2c(C)cc(/C=C3\SC(=Nc4ccccc4)NC3=O)c2C)cc1 [OSM-S-111] | 147
* Cc1ccc(-n2c(C)cc(/C=C3\SC(=Nc4ccccc4)NC3=O)c2C)cc1 [OSM-S-37] | 161
* Cc1cc(/C=C2\SC(=Nc3ccccc3)NC2=O)c(C)n1-c1ccc(S(N)(=O)=O)cc1 [OSM-A-1] | 3050

Just for reference, paper PMC5084075 is where these values come from.
